What IC50 was measured for each of the following?
Biological target: BTK (Homo sapiens, UniProt Q06187)
Sequence (Q06187 whole entry): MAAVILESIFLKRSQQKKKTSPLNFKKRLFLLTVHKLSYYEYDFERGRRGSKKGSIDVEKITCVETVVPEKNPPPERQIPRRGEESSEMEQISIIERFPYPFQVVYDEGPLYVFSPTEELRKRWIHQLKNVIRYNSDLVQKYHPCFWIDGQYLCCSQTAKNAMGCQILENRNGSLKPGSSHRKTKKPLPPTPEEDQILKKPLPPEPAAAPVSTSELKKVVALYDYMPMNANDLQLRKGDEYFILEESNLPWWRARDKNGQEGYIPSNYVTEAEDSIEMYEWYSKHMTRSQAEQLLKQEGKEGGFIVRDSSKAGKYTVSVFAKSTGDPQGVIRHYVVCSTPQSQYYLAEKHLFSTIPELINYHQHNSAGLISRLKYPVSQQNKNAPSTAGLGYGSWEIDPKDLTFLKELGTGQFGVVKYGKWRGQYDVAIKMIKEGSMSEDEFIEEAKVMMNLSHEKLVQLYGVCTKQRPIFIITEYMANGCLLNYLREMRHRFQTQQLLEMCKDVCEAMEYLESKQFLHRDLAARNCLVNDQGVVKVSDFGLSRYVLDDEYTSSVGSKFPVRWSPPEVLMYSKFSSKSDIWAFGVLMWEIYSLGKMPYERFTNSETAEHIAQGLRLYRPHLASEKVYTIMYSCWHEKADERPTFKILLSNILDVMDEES

Query C=CC(=O)Nc1cccc(Oc2ncnc3[nH]c(-c4ccc(CN5CCS(=O)(=O)CC5)cc4)cc23)c1 yields IC50 of < 100 nM

Query C=CC(=O)Nc1cccc(Nc2ncnc3[nH]c(-c4ccc(N5CCOCC5)cc4)cc23)c1 yields IC50 of < 100 nM

Query C=CC(=O)Nc1cccc(Oc2ncnc3[nH]c(-c4ccc(N5CCN(C)CC5)cc4)cc23)c1 yields IC50 of < 100 nM

Query C=CC(=O)Nc1cccc(Nc2ncnc3[nH]c(-c4ccc(N5CCN(C)CC5)cc4)cc23)c1 yields IC50 of < 100 nM

Query CC#CC(=O)Nc1cccc(Oc2ncnc3[nH]c(-c4ccc(CN5CCC(F)(F)CC5)cc4)cc23)c1 yields IC50 of < 100 nM
